# Tested on: S. aureus ATCC 25923 (Sa23)
# assay summary: MIC, microdilution (CLSI)
# Format: cell-based
# setup conditions: Staphylococcus aureus, ATCC25923; Sa23, antibiotic susceptible S. aureus ATCC 25923; n = 3; read-out: MIC
measured endpoint: MIC

Q. API: value(readout=MIC, system=S. aureus ATCC 25923 (Sa23)) for record COc1ccc(NCc2cn(-c3ccc(C(=O)O)cc3)nc2-c2cc(C(F)(F)F)cc(C(F)(F)F)c2)cc1 [Compound 4]
A. 8 µg/mL

Q. Continue with O=C(O)c1ccc(-n2cc(CNc3cc(Cl)c(F)cc3F)c(-c3cc(C(F)(F)F)cc(C(F)(F)F)c3)n2)cc1 [Compound 26]
A. 2 µg/mL

Q. Continue with CCCCCCCCCC(=O)N[C@@H](Cc1c[nH]c2ccccc12)C(=O)N[C@H](CC(N)=O)C(=O)N[C@@H](CC(=O)O)C(=O)N[C@@H]1C(=O)NCC(=O)N[C@@H](CCCN)C(=O)N[C@@H](CC(=O)O)C(=O)N[C@H](C)C(=O)N[C@@H](CC(=O)O)C(=O)NCC(=O)N[C@H](CO)C(=O)N[C@@H]([C@H](C)CC(=O)O)C(=O)N[C@@H](CC(=O)c2ccccc2N)C(=O)O[C@@H]1C [D, Daptomycin, reference compound]
A. 2 µg/mL

Hello, the source for this data is paper PMC8398255, in case you need it.
